Hello, the source for this data is ChEMBL document CHEMBL4513216, in case you need it.

- EXPERIMENTAL_DETAILS: Toxicity liver stage against HepG2, at 10uM
- Assay type: cell-based
- Design: test concentration 10 uM, cell line HepG2-A16-CD81EGFP
- RUN_PARAMETERS: human, HepG2-A16-CD81EGFP cells; read-out: INHIBITION
Listing of entries alongside the reported cytotoxicity at 10 µM.
Numbers only here, please. The scale is %.

The cases that follow already have their cytotoxicity at 10 µM on record.
CCCn1c(=O)n(CCC(=O)N(C)Cc2ccc(C)o2)c2ccccc21 ... -3.26
COc1ccc(CN2CCOC(CCc3ccnc(N)c3)C2)cc1 (stereo not given) ... 13.3
Cc1cc(C)n(-c2ccc(CNCc3ccc(F)cc3F)cn2)n1 ... -12.2
Cc1cc(CN2CCN(C(C)c3nc(C(C)C)no3)CC2)no1 (stereo not given) ... 3.29

Given the compound O=C(NCC1CC1)C1CN(C(=O)NC2CCCC2)Cc2cncn2C1 (stereo not given) , write its reported cytotoxicity at 10 µM.
-106

Given the compound "c1ccc(CO[C@@H]2CN(Cc3cccnc3)[C@@H]3COC[C@@H]32)nc1" , write its reported cytotoxicity at 10 µM.
-98.7

Given the compound "Cc1noc(CN(C)C(=O)c2n[nH]c(N)c2-c2ccccc2)n1" , write its reported cytotoxicity at 10 µM.
-2.14

Given the compound COCCC(=O)N1CCn2c(COCC3CC3)cnc2C1C (stereo not given) , write its reported cytotoxicity at 10 µM.
4.17

Given the compound "CCCNC(=O)c1cnc2n1CCCC2" , write its reported cytotoxicity at 10 µM.
-3.19

Given the compound O=C(CCc1nccs1)N1CCCC(N2CCNC2=O)C1 (stereo not given) , write its reported cytotoxicity at 10 µM.
-18.3

---

Listing of entries alongside the reported cytotoxicity at 10 µM.
- EXPERIMENTAL_DETAILS: Toxicity liver stage against HepG2, at 10uM
- Assay type: cell-based
- Parameters: test concentration 10 uM, cell line HepG2-A16-CD81EGFP
- RUN_PARAMETERS: human, HepG2-A16-CD81EGFP cells; read-out: INHIBITION
Numbers only here, please. The scale is %.

The cases that follow already have their cytotoxicity at 10 µM on record.
Cc1csc(C2CCCCN2C(=O)Cn2cncn2)n1 (stereo not drawn) ... -0.0679
Cc1ccccc1OC1CCN(CC(=O)Nc2c(C)nn(C)c2C)CC1 ... 0.919
COCC(=O)N1CCCC(C(=O)c2cnn(-c3ccc(F)cc3)c2N)C1 (stereo not drawn) ... 9.71
COCC(NC(=O)c1cc[nH]n1)c1cccc(C(F)(F)F)c1 (stereo not drawn) ... -10.7
Cc1cc(N2CCC(NC(C)Cc3ccsc3)CC2)nc(N)n1 (stereo not drawn) ... 2.22

Given the molecule Cc1ccc(N2CCCC(NCc3c(C)noc3C)C2)nn1 (stereo not drawn) , write its reported cytotoxicity at 10 µM.
-5.88

Given the molecule CCc1cc(C(=O)N2CCCC2c2nc(C)c(CC)c(O)n2)on1 (stereo not drawn) , write its reported cytotoxicity at 10 µM.
-14.2

Given the molecule "CN(C)c1cc(CNC(=O)c2cnccn2)ccn1" , write its reported cytotoxicity at 10 µM.
-17.7

Given the molecule "COCCN1C(=O)CCC12CCN(C(=O)NC(C)C)CC2" , write its reported cytotoxicity at 10 µM.
4.45

Given the molecule "CCCN1CCC(Nc2cc(-c3ccccc3)ccc2OC)CC1" , write its reported cytotoxicity at 10 µM.
0.906

Given the molecule "CCOC(=O)c1sc(NC(=O)CN(C)S(C)(=O)=O)c(C#N)c1C" , write its reported cytotoxicity at 10 µM.
16.6

Given the molecule "Cc1c(Br)cccc1C(=O)NCC1CCNCC1" , write its reported cytotoxicity at 10 µM.
-16

Given the molecule CC(CN(C)Cc1cccc(-n2cccn2)c1)C(F)(F)F (stereo not drawn) , write its reported cytotoxicity at 10 µM.
1.55

Given the molecule CN(C)S(=O)(=O)N1CCC2(COCc3cnc(NCC4CC4)nc32)C1 (stereo not drawn) , write its reported cytotoxicity at 10 µM.
7.66

Given the molecule "CN1CCN(C(=O)c2cccc(S(=O)(=O)NCC3(C)COC3)c2)CC1" , write its reported cytotoxicity at 10 µM.
-14.1

Given the molecule O=C(C1CCCc2[nH]ncc21)N1CCCC1 (stereo not drawn) , write its reported cytotoxicity at 10 µM.
8.53

Given the molecule CC(C)CC1SCC(=O)Nc2c1cnn2-c1ccc(F)cc1 (stereo not drawn) , write its reported cytotoxicity at 10 µM.
6.82

Given the molecule "CCn1ccnc1CN1CCN(c2ncnc3ccccc23)CC1" , write its reported cytotoxicity at 10 µM.
-1.8

Given the molecule "O=C(O)c1ccccc1-c1ccc(CN2CCC(CO)CC2)cn1" , write its reported cytotoxicity at 10 µM.
2.45

Given the molecule CNc1ccc(CC2CCCN(C(=O)c3c(C)noc3C)C2)nn1 (stereo not drawn) , write its reported cytotoxicity at 10 µM.
-5

Given the molecule Cc1noc(C)c1CNC(=O)N1CCC(Cc2cnn(C)c2)C1 (stereo not drawn) , write its reported cytotoxicity at 10 µM.
-8.66

Given the molecule Cc1ccccc1-c1noc(-c2ccc(NCC3COCCO3)nc2)n1 (stereo not drawn) , write its reported cytotoxicity at 10 µM.
3.41

Given the molecule CCCc1noc(CS(=O)(=O)CC(=O)NC(C)CCC)n1 (stereo not drawn) , write its reported cytotoxicity at 10 µM.
3.22

Given the molecule "Cc1cc(CNC2(CO)CCOCC2)ccc1Br" , write its reported cytotoxicity at 10 µM.
17.4

Given the molecule "Cc1cc(N(C)Cc2ncc(-c3ccccc3C(=O)O)s2)ncn1" , write its reported cytotoxicity at 10 µM.
-0.241

Given the molecule "COc1ccc(OC)c(Sc2ncccc2C(=O)N(C)CCC#N)c1" , write its reported cytotoxicity at 10 µM.
13.3

Given the molecule "CCc1ccsc1C(=O)N1CCN(C(=O)CC(F)(F)F)CC1" , write its reported cytotoxicity at 10 µM.
-9.88

---

Listing of entries alongside the reported cytotoxicity at 10 µM.
- EXPERIMENTAL_DETAILS: Toxicity liver stage against HepG2, at 10uM
- Assay type: cell-based
- Design: test concentration 10 uM, cell line HepG2-A16-CD81EGFP
- RUN_PARAMETERS: human, HepG2-A16-CD81EGFP cells; read-out: INHIBITION
The reply should read as a number followed by its unit.

c1cnc(N2CCN(Cn3nccc3-c3cccnc3)CC2)nc1 ... 8.99%
O=C(CC1=CCCCC1)Nc1ccc(CN2C(=O)CCC2=O)cc1 ... 0.719%
CNC(=O)COc1ccccc1CNC1CCc2ncnn2C1 (centres undefined) ... -13.6%
CC(C)(C)c1n[nH]cc1CNCC1CCN(C2CC2)C1 (centres undefined) ... 2.16%

Given the compound "O=C1CCCN1c1cccc(N2CCC(NCCc3cscn3)CC2)c1" , write its reported cytotoxicity at 10 µM.
-26%

Given the compound COc1cccc(CNC(=O)CC2CSc3ncc(C)c(=O)n32)c1 (centres undefined) , write its reported cytotoxicity at 10 µM.
10.4%

---

- EXPERIMENTAL_DETAILS: Toxicity liver stage against HepG2, at 10uM
- Assay type: cell-based
- Design: test concentration 10 uM, cell line HepG2-A16-CD81EGFP
- RUN_PARAMETERS: human, HepG2-A16-CD81EGFP cells; read-out: INHIBITION
QUANTITY_NAME: cytotoxicity at 10 µM (%)
Numbers only here, please. The scale is %.

The cases that follow already have their cytotoxicity at 10 µM on record.
CC(=O)N1CCC(C)(c2nc(C)no2)CC1 ... -1.55
C[C@@H](NC(=O)c1ccc(Cl)cc1)c1onc(-c2cccnc2)c1C(=O)O ... -1.6
c1cnc(Nc2cncc(C3CCCN3)n2)cn1 (centres undefined) ... -8.69
O=C(N[C@@H]1c2ccccc2C[C@@H]1O)C1CCN(Cc2ccco2)CC1 ... -0.647
CCOC(=O)NC1CCCN(Cc2ccc(-n3cncn3)c(C)c2)C1 (centres undefined) ... 2.12

Given the compound "CCN1C(=O)C2(CCOCC2)c2cc(NC(=O)c3cc(C)n[nH]3)ccc21" , write its reported cytotoxicity at 10 µM.
-2.49

---

- EXPERIMENTAL_DETAILS: Toxicity liver stage against HepG2, at 10uM
- Format: cell-based
- Design: test concentration 10 uM, cell line HepG2-A16-CD81EGFP
- RUN_PARAMETERS: human, HepG2-A16-CD81EGFP cells; read-out: INHIBITION
Listing of entries alongside the reported cytotoxicity at 10 µM.
Numbers only here, please. The scale is %.

The cases that follow already have their cytotoxicity at 10 µM on record.
Cc1nc[nH]c1CN1CCN(C(=O)C2CC2)[C@H]2CS(=O)(=O)C[C@H]21 ... 0.855
Cn1nc(C2CN(C(=O)c3cscn3)C2)c2nccnc21 ... 2.21
Cc1noc(C)c1CNC(=O)C(C)Oc1ccccc1F (stereo unspecified) ... 3
CC(C)n1cnnc1Cn1ccc2ncccc2c1=O ... 0.86
Cc1cc(C)n(CC2CN(Cc3cccc(C#N)c3)CCO2)n1 (stereo unspecified) ... -3.46

Next, consider the following molecule.
Given the molecule CCC(O)CN1CCN(C(=O)c2cccn2Cc2ccncc2)CC1 (stereo unspecified) , write its reported cytotoxicity at 10 µM.
-13
